Efficacy listing for selected compounds.
# tested-target: 5-hydroxytryptamine receptor 2C (Rattus norvegicus) (UniProt P08909)
# Sequence (P08909 whole entry): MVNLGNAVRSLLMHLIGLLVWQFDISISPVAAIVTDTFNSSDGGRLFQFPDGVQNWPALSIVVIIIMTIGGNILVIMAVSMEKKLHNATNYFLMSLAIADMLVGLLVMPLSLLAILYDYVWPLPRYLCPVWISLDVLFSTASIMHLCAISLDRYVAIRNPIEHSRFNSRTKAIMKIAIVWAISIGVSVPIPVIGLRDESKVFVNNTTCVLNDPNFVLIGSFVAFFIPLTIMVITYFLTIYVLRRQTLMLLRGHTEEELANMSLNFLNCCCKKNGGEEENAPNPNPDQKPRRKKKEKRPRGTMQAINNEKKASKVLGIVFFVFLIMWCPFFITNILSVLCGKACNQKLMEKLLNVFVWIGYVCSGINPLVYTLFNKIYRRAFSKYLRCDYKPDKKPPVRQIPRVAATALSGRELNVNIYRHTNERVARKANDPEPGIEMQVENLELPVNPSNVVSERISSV
# experiment: Intrinsic 5-HT 2c receptor activity as induced IP3 turnover in vitro in rat choroid plexus
# Assay type: functional, tissue-based
# print the numeric value only

Past entries and their recorded results:
1. COc1ccc2c(c1)-c1c(ccn1C[C@@H](C)N)C2 :: 0.8
2. C[C@H](N)Cn1ccc2c(Cl)c(F)ccc21 :: 1

Tell me Efficacy of CC(N)Cn1ccc2c1-c1cc(F)ccc1C2(C)C (stereo unspecified) when tested on 5-hydroxytryptamine receptor 2C (Rattus norvegicus) (UniProt P08909).
1

====

# tested-target: 5-hydroxytryptamine receptor 2C (Rattus norvegicus)
# experiment: Intrinsic 5-HT 2c receptor activity as induced IP3 turnover in vitro in rat choroid plexus
# Type: functional, tissue-based
Efficacy listing for selected molecules.
# print the numeric value only

1. C[C@H](N)Cn1ccc2cc(F)c(F)cc21 :: 1

Using the record for CC(N)Cn1ccc2c1-c1cc(Cl)ccc1C2 (centres undefined) , state its measured Efficacy.
0.8

Using the record for CC(N)Cn1ccc2cc(F)ccc21 (centres undefined) , state its measured Efficacy.
1

Using the record for CC(N)Cn1ccc2ccc(F)cc21 (centres undefined) , state its measured Efficacy.
1

Using the record for Cc1ccc2c(ccn2CC(C)N)c1 (centres undefined) , state its measured Efficacy.
0.9

Using the record for COc1ccc2c(c1)-c1c(ccn1CC(C)N)C2(C)C (centres undefined) , state its measured Efficacy.
1

Using the record for COc1ccc2c(c1)Cc1ccn(CC(C)N)c1-2 (centres undefined) , state its measured Efficacy.
1

Using the record for "COc1ccc2c(c1)-c1c(ccn1C[C@H](C)N)C2" , state its measured Efficacy.
1

Using the record for COc1cccc2c1ccn2CC(C)N (centres undefined) , state its measured Efficacy.
0.3

Using the record for COc1ccc2c(ccn2CC(C)N)c1 (centres undefined) , state its measured Efficacy.
0.3

Values from ChEMBL document CHEMBL1130391
